Record form. Attribute: AUC0-inf. Fill in for each entry.
- experiment_summary: Pharmacokinetics in hGLP-1R mice after oral dosing
- Format: in vivo, male C57BL/6J hGLP-1R mouse
- assay_conditions: male, C57BL/6J hGLP-1R, mouse, plasma, po, 1 mg/kg, hGLP-1R mouse plasma, PO 1 mg/kg, mean; read-out: AUC0-inf
Express the reported value numerically, then name its unit.

compound | AUC0-inf
N#Cc1ccc(COc2cccc(C3CCN(Cc4nc5ccc(C(=O)O)cc5n4Cc4cncs4)CC3)n2)c(F)c1 | 400 ng·h/mL

Proceeding to the next compound to report its AUC0-inf.
Fill in reported AUC0-inf for this entry: N#Cc1ccc(COc2cccc(C3CCN(Cc4nc5ccc(C(=O)O)cc5n4C[C@@H]4CCO4)CC3)n2)c(F)c1 [Reference Compound A, reference compound]
93.8 ng·h/mL

====

- subject_of_test: UniProt P43220
- Sequence (P43220 24-463): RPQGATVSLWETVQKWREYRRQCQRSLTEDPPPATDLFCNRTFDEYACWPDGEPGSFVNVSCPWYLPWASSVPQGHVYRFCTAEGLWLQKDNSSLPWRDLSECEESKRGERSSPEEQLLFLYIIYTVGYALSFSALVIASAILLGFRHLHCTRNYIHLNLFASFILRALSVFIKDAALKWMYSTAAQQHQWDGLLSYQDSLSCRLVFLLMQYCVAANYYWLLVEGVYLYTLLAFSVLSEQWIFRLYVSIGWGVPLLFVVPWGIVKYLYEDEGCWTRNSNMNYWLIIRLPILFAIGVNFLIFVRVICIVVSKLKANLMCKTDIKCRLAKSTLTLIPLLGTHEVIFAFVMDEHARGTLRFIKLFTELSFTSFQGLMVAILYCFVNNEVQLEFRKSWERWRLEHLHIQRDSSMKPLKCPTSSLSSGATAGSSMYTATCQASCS
- experiment_summary: GLP-1R low expression cell assay (cAMP TR-FRET, CHO-K1_hGLP-1Rlow_clone10)
- assay_conditions: CHO-K1_hGLP-1Rlow_clone10 cells
result_type: pEC50
Answers are plain numbers, as −log10 of the molar value.

For orientation, consider the following solved cases.
molecule | pEC50
Cc1ncsc1Cn1c(CN2CCC3(c4cccc(OCc5ccc(C#N)cc5F)n4)CC3C2)nc2ccc(C(=O)O)cc21 (stereo not shown) [Compound 12] | 6.64
N#Cc1ccc(COc2ccnc(C3CCN(Cc4nc5ccc(C(=O)O)cc5n4Cc4cncs4)CC3)n2)c(F)c1 [Compound 20] | 8.03

For every item in the list below, what is its measured pEC50?
1. N#Cc1ccc(COc2ccnc([C@]34CCN(Cc5nc6ccc(C(=O)O)cc6n5Cc5cncs5)C[C@H]3C4)n2)c(F)c1 [Compound 18]
2. [2H]C([2H])(Oc1cccc(C2CCN(Cc3nc4ccc(C(=O)O)cc4n3Cc3cncs3)CC2)n1)c1ccc(C#N)cc1F [Compound 27]

1: 8.00; 2: 8.07

====

- experiment_summary: Pharmacokinetics in hGLP-1R mice after oral dosing
- Format: in vivo, male C57BL/6J hGLP-1R mouse
- assay_conditions: male, C57BL/6J hGLP-1R, mouse, plasma, po, 0.3 mg/kg, hGLP-1R mouse plasma, PO 0.3 mg/kg, 1 h, individual animals; read-out: Concentration
result_type: concentration at 1 h (ng/mL)
One number for each entry, in ng/mL.

Fill in reported concentration at 1 h for this entry: `N#Cc1ccc(COc2cccc(C3CCN(Cc4nc5ccc(C(=O)O)cc5n4Cc4cncs4)CC3)n2)c(F)c1`
43.3

====

Record form. Attribute: half-life at 1 μM. Fill in for each entry.
- experiment_summary: Metabolic stability in rat hepatocytes
- Format: in vitro ADME
- assay_conditions: cryopreserved hepatocytes, 1 μM
Give bare numbers, in h.

compound | half-life at 1 μM (h)
O=C(O)c1ccc2nc(CN3CCC(c4nccc(OCc5ccc(Cl)cc5F)n4)CC3)n(Cc3cncs3)c2c1 | 0.957
N#Cc1ccc(COc2cccc(C34CCN(Cc5nc6ccc(C(=O)O)cc6n5Cc5cncs5)CC3C4)n2)c(F)c1 (centres unmarked) | 0.597
N#Cc1ccc(COc2ccnc(C3CCN(Cc4nc5ccc(C(=O)O)cc5n4Cc4cncs4)CC3)n2)c(F)c1 | 1.49
[2H]C([2H])(Oc1cccc(C2CCN(Cc3nc4ccc(C(=O)O)cc4n3Cc3cncs3)CC2)n1)c1ccc(C#N)cc1F | 1.91

Proceeding to the next compound to report its half-life at 1 μM.
Fill in reported half-life at 1 μM for this entry: `N#Cc1ccc(COc2cccc(C3CCN(Cc4nc5ccc(C(=O)O)cc5n4Cc4cncs4)CC3)n2)c(F)c1`
1.32
